target: δ-Selinene Synthase (ag4) (SEQ ID No. 20) (Abies grandis, UniProt O64404)
Construct: made in house; host or cells: E. coli XL1-Blue/pGAG4 or E. coli BL21(DE3)/pSBAG4
Sequence (O64404 whole entry): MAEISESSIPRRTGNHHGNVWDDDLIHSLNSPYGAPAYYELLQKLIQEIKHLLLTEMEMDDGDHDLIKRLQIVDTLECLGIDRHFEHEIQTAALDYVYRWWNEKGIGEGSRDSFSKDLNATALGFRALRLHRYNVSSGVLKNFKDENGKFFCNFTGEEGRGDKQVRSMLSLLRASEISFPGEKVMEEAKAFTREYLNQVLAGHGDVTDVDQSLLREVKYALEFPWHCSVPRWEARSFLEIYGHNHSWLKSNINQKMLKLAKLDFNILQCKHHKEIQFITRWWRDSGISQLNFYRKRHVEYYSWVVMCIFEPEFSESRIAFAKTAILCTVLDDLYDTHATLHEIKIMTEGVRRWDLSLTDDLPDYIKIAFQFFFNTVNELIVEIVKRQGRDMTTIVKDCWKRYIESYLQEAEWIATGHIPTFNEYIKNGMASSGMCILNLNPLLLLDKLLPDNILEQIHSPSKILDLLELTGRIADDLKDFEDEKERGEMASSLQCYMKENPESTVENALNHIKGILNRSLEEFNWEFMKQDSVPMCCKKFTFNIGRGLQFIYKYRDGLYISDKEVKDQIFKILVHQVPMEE
test-protocol: Product profile of recombinant δ-selinene synthase in vitro (preparative assay, GLC-MS)
Type: biochemical
condition-set: from [1-3H]farnesyl diphosphate; total ion current chromatogram
measure: sesquiterpene products of δ-selinene synthase, %

1. CC(C)=C1C/C=C(\C)CC/C=C(\C)CC1 [E,E-Germacrene B]    17.4%
2. C=C(C)[C@@H]1CC[C@H](C)C2=C(C1)[C@@H](C)CC2 [α-Guiaene]    0.2%
3. CC1=C2C=C(C(C)C)CCC2(C)CCC1 (centres unmarked) [δ-Selinene]    25.3%
4. C/C1=C\C=C(\C(C)C)CC/C(C)=C/CC1 [Germacrene C]    3.4%
5. C=C(C)[C@@H]1C/C=C(\C)CC/C=C(\C)CC1 [Germacrene A]    6.7%
